# Tested on: Cotton (CT)
# assay: Pre-emergence herbicide test
# Format: in vivo, Gossypium hirsutum var. DPL smooth leaf
# measurement setup: Gossypium hirsutum, 336 h, 2 lb/acre, two weeks after treatment
readout name: pest or weed control at 2241.7 g/ha (%)
Give your result in % as a bare value.

Some compounds with known pest or weed control at 2241.7 g/ha results, for comparison:
>>> observed_value("CCS(=O)(=O)c1nnc(NC(=O)NC)s1 [Example 81]")
100
>>> observed_value("CCCSc1nnc(N(C)C(=O)N(C)C)s1 [Example 66]")
80
>>> observed_value("CCCCSc1nnc(N(C)C(=O)NC)s1 [Example 90]")
30
>>> observed_value("C=CCSc1nnc(NC(=O)NC)s1 [Example 39]")
50
>>> observed_value("CCCCS(=O)(=O)c1nnc(N(C)C(=O)NC)s1 [Example 92]")
10
>>> observed_value("CCSc1nnc(N(C)C(=O)NC)s1 [Example 89]")
10
>>> observed_value("CNC(=O)Nc1nnc(C(F)F)s1 [Example 67]")
0

Consider the record given below.
CCCSc1nnc(NC(=O)NC)s1 [Example 41] yielded pest or weed control at 2241.7 g/ha of 50

----------
# System: Barnyard grass (BG)
# assay: Post-emergence herbicide test
# Assay type: in vivo
# measurement setup: Echinochloa crus-galli, 336 h, 4 lb/acre, two weeks after treatment
readout name: pest or weed control at 4483.4 g/ha (%)
Give your result in % as a bare value.

>>> observed_value("CCC(C)=CCSc1nnc(NC(=O)NC)s1")
20

CNC(=O)Nc1nnc(SCCC(C)C)s1 yielded pest or weed control at 4483.4 g/ha of 70

CCC(C)Sc1nnc(NC(=O)NC)s1 (stereo not shown) yielded pest or weed control at 4483.4 g/ha of 40

CCCSc1nnc(N(C)C(=O)NC)s1 yielded pest or weed control at 4483.4 g/ha of 80

CNC(=O)Nc1nnc(SCc2ccc([N+](=O)[O-])cc2)s1 yielded pest or weed control at 4483.4 g/ha of 20

CNC(=O)Nc1nnc(SCCC#N)s1 yielded pest or weed control at 4483.4 g/ha of 20

CNC(=O)Nc1nnc(SC(C)C)s1 yielded pest or weed control at 4483.4 g/ha of 50

CN(C)C(=O)N(C)c1nnc(C(C)(C)C)s1 yielded pest or weed control at 4483.4 g/ha of 100

C=C(C)CSc1nnc(NC(=O)NC)s1 yielded pest or weed control at 4483.4 g/ha of 40

CCCCS(=O)(=O)c1nnc(NC(=O)NC)s1 yielded pest or weed control at 4483.4 g/ha of 90

CNC(=O)Nc1nnc(SCCCCl)s1 yielded pest or weed control at 4483.4 g/ha of 70

CCCS(=O)(=O)c1nnc(NC(=O)NC)s1 yielded pest or weed control at 4483.4 g/ha of 80

CNC(=O)Nc1nnc(-c2cccc(C(F)(F)F)c2)s1 yielded pest or weed control at 4483.4 g/ha of 40

----------
# Tested on: Barnyard grass (BG)
# assay: Post-emergence herbicide test
# Assay type: in vivo
# measurement setup: Echinochloa crus-galli, 336 h, 8 lb/acre, two weeks after treatment
readout name: pest or weed control at 8966.8 g/ha (%)
Give your result in % as a bare value.

Some compounds with known pest or weed control at 8966.8 g/ha results, for comparison:
>>> observed_value("CNC(=O)Nc1nnc(-c2ccc(Cl)cc2Cl)s1 [Example 75]")
40
>>> observed_value("CSc1nnc(N(C)C(=O)N(C)C)s1 [Example 5]")
100
>>> observed_value("CNC(=O)Nc1nnc(COC)s1 [Example 25]")
20
>>> observed_value("CN(C)C(=O)Nc1nnc(C(F)(F)F)s1 [Example 2]")
60
>>> observed_value("CNC(=O)Nc1nnc(-c2cccc(Cl)c2)s1 [Example 72]")
40

CNC(=O)Nc1nnc(SC)s1 [Example 26] yielded pest or weed control at 8966.8 g/ha of 60

CNC(=O)Nc1nncs1 [Example 35] yielded pest or weed control at 8966.8 g/ha of 10

CNC(=O)Nc1nnc(S(C)(=O)=O)s1 [Example 33] yielded pest or weed control at 8966.8 g/ha of 100

C=CCNC(=O)Nc1nnc(SC)s1 [Example 31] yielded pest or weed control at 8966.8 g/ha of 20
